- measured target: hOX1R (Homo sapiens)
- assay comment: FLIPR Ca2+ Flux Assay, hOX1R
- run conditions: CHO cells expressing orexin-1 receptor (head: hOX1R; method: rat); agonist 70 pM Ala-6,12 orexin-A
pIC50: −log10 of the molar value.
property label: pIC50

* C[C@@H]1CC[C@@H](c2cnn(C3CCC3)c2)CN1C(=O)c1ccccc1-n1nccn1 | 5.46
* COC(=O)C(C)(C)n1cc([C@@H]2CC[C@@H](C)N(C(=O)c3ccccc3-n3nccn3)C2)cn1 | 5.52
* C[C@@H]1CC[C@@H](c2cnn(CC(F)F)c2)CN1C(=O)c1ccccc1-n1nccn1 | < 5.00
* C[C@@H]1CC[C@@H](c2cnn(C3CCOC3)c2)CN1C(=O)c1ccccc1-n1nccn1 (stereo partly shown) | < 5.00
* C[C@@H]1CC[C@@H](c2cnn(C3CCCC3)c2)CN1C(=O)c1ccccc1-n1nccn1 | 5.84
* CC(C)n1cc([C@@H]2CC[C@@H](C)N(C(=O)c3ccccc3-n3nccn3)C2)cn1 | 5.47
* C[C@@H]1CC[C@@H](c2cnn(C3CC3)c2)CN1C(=O)c1ccccc1-n1nccn1 | < 5.00
* C[C@@H]1CC[C@@H](c2cnn(CC(F)(F)F)c2)CN1C(=O)c1ccccc1-n1nccn1 | < 5.00
* CC(C)n1cc([C@@H]2CC[C@@H](C)N(C(=O)c3ccsc3-n3nccn3)C2)cn1 | < 5.00
* C[C@@H]1CC[C@@H](c2cnn(CC(C)(C)O)c2)CN1C(=O)c1ccccc1-n1nccn1 | < 5.00
* CC(C)n1cc([C@@H]2CC[C@@H](C)N(C(=O)c3ccsc3-c3ncccn3)C2)cn1 | < 5.00
* CC(C)n1cc([C@@H]2CC[C@@H](C)N(C(=O)c3ccccc3-n3ncnn3)C2)cn1 | < 5.00
* CC(C)n1cc([C@@H]2CC[C@@H](C)N(C(=O)c3cscc3-n3nccn3)C2)cn1 | < 5.00
* CCn1cc([C@@H]2CC[C@@H](C)N(C(=O)c3ccccc3-n3nccn3)C2)cn1 | < 5.00
* C[C@@H]1CC[C@@H](c2cnn(CC3CC3)c2)CN1C(=O)c1ccccc1-n1nccn1 | 5.11
* CC(C)n1cc([C@@H]2CC[C@@H](C)N(C(=O)c3ccc(F)cc3-n3nccn3)C2)cn1 | < 5.00

====

- measured target: UniProt:O43614
- Sequence (O43614 whole entry): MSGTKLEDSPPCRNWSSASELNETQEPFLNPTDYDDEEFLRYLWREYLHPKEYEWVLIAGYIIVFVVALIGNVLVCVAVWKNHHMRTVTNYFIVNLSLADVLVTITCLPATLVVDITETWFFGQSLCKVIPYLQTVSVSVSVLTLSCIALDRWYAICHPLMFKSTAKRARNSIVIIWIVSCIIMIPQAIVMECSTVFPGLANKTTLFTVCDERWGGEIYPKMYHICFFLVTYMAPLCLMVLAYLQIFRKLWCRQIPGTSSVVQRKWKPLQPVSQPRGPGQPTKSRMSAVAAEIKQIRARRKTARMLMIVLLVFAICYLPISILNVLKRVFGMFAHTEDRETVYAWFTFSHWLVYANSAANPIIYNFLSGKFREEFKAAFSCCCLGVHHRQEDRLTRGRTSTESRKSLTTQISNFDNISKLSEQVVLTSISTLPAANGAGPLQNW
- assay comment: FLIPR Ca2+ Flux Assay, hOX2R
- run conditions: CHO cells expressing the human orexin-2 receptor; agonist 70 pM Ala-6,12 orexin-A
We begin with a simple list: items and their reported log10(IC50).
property label: log10(IC50) (log10 of the value in nM)

- CC(C)n1cc([C@@H]2CC[C@@H](C)N(C(=O)c3ccsc3-c3ncccn3)C2)cn1 [Example 13]: 2.19
- CC(C)n1cc([C@@H]2CC[C@@H](C)N(C(=O)c3ccccc3-n3ncnn3)C2)cn1 [Example 16]: 2.41
- C[C@@H]1CC[C@@H](c2cnn(C3CCC3)c2)CN1C(=O)c1ccccc1-n1nccn1 [Example 8]: 1.69
- COC(=O)C(C)(C)n1cc([C@@H]2CC[C@@H](C)N(C(=O)c3ccccc3-n3nccn3)C2)cn1 [Example 7]: 1.66
- C[C@@H]1CC[C@@H](c2cnn(CC(F)F)c2)CN1C(=O)c1ccccc1-n1nccn1 [Example 6]: 2.26
- CC(C)n1cc([C@@H]2CC[C@@H](C)N(C(=O)c3ccsc3-n3nccn3)C2)cn1 [Example 12]: 2.48
- C[C@@H]1CC[C@@H](c2cnn(C3CCOC3)c2)CN1C(=O)c1ccccc1-n1nccn1 (stereo partly shown) [Example 9]: 2.78
- CCn1cc([C@@H]2CC[C@@H](C)N(C(=O)c3ccccc3-n3nccn3)C2)cn1 [Example 1]: 2.14
- C[C@@H]1CC[C@@H](c2cnn(CC3CC3)c2)CN1C(=O)c1ccccc1-n1nccn1 [Example 3]: 2.09
- CC(C)n1cc([C@@H]2CC[C@@H](C)N(C(=O)c3ccc(F)cc3-n3nccn3)C2)cn1 [Example 15]: 2.05
- CC(C)n1cc([C@@H]2CC[C@@H](C)N(C(=O)c3cscc3-n3nccn3)C2)cn1 [Example 14]: 2.63
- C[C@@H]1CC[C@@H](c2cnn(CC(C)(C)O)c2)CN1C(=O)c1ccccc1-n1nccn1 [Example 10]: 2.29
- C[C@@H]1CC[C@@H](c2cnn(CC(F)(F)F)c2)CN1C(=O)c1ccccc1-n1nccn1 [Example 5]: 1.88
- C[C@@H]1CC[C@@H](c2cnn(C3CCCC3)c2)CN1C(=O)c1ccccc1-n1nccn1 [Example 4]: 1.59
- CC(C)n1cc([C@@H]2CC[C@@H](C)N(C(=O)c3ccccc3-n3nccn3)C2)cn1 [Example 2]: 1.53
- C[C@@H]1CC[C@@H](c2cnn(C3CC3)c2)CN1C(=O)c1ccccc1-n1nccn1 [Example 11]: 1.75
